Reference source for all entries: ChEMBL document CHEMBL1201862

Tested on: NCI-H460
Test: NCI tumour cell line growth inhibition, 48 h
Active and inactive are the calls of the source. No stated cut-off is given here; in the data, active = GI50 up to about 1.1 µM and inactive = higher. Where a SMILES comes first, the peptide text is derived from it. The star is where a group is joined. Boc = CC(C)(C)OC(=O)*; OSu = O=C1CCC(=O)N1O*
Possible outcomes: label 1 (active), label 0 (inactive)

CCN(CC)c1ccc(/N=N/c2ccc(-c3nc4cccnc4s3)cc2)cc1 :: label 0
CCCCCCOc1ccc(C(=O)NOC)cc1 :: label 0
O=C(/C=C/c1ccc(O)c(O)c1)OCc1ccccc1 [BENZYL CAFFEATE] :: label 0
Clc1ccc(Cl)c(/N=N/c2cc3c4c(c2)CCCN4CCC3)c1 :: label 0
O=c1[nH]c(C23CC4CC(CC(C4)C2)C3)cc2c1c(=O)oc1ccccc12 :: label 0
COC1=CC(=O)C2=C(C1=O)[C@H]1CC[C@]3(C)[C@@H](OC(C)=O)CC[C@H]3[C@@H]1CC2 :: label 0
CC(NC(=O)C(NC(=O)OC(C)(C)C)C(C)C)C(=O)NCC(=O)ON1C(=O)CCC1=O (stereo not drawn) (Boc-Val-Ala-Gly-OSu; configuration not given here) :: label 0
CCOC(=O)c1sc2nc(SC)nc(Nc3ccc(OC)c(OC)c3)c2c1N :: label 1
CCOC(=O)C[n+]1ccc2c([nH]c3cc(OC)ccc32)c1C :: label 0

###

System: CAKI-1
Experiment: NCI tumour cell line growth inhibition, 48 h
Activity calls are given as the source filed them. No stated cut-off is given here; in the data, active = GI50 up to about 1.1 µM and inactive = higher.
Outcome codes: 1 for active, 0 for inactive

C/C(=N/NC(=S)Nc1cccc(Cl)c1)c1cccc(/C(C)=N\NC(=S)Nc2cccc(Cl)c2)n1 :: 0
O=S(=O)(O)c1cc(S(=O)(=O)O)c2c(Nc3ccnc4ccccc34)ccc(S(=O)(=O)O)c2c1 :: 0
O=C(/C=C/c1ccc(OCCCCCCCCCCOc2ccc(/C=C/C(=O)c3ccc(Cl)cc3)cc2)cc1)c1ccc(Cl)cc1 :: 0
Cc1ccc(S(=O)(=O)N(CC(O)COc2ccccc2)c2c(F)c(F)cc(F)c2F)cc1 (stereo not given) :: 0
CC(=O)c1[nH]c(NC(C)C)c(C(=S)Nc2ccccc2)c1N :: 0
O=C(CC(=O)c1cccc2ccccc12)C(=O)NC1C2CC3CC(C2)CC1C3 (stereo not given) :: 0
CS(=N)(=O)CCC(N)P(=O)(O)O (stereo not given) :: 0
CCCCc1ccc(Nc2nc(SC)c3[nH]cnc3n2)cc1 :: 0
C/C(=C\C(=O)Nc1ccc2[nH]nnc2c1)Nc1ccc2[nH]nnc2c1 :: 0
CC(=O)N(CCc1ccccc1)C(C#N)c1ccc(OCCCCCCCCCCOc2ccc(C(C#N)N(CCc3ccccc3)C(C)=O)cc2)cc1 (stereo not given) :: 0
BrC1=CN2C[n+]3cc(Br)c4ccccc4c3N=C2c2ccccc21 :: 0
COc1ccccc1NC(=S)N/N=C(/c1ccccc1)c1ccccn1 :: 1
CCOC(=O)CC1=N/C(=N/C(=N)N[N+](=O)[O-])SC1 :: 0
OC(c1ccccc1)c1c(-c2ccccc2)oc(-c2ccccc2)c1C(O)c1ccccc1 (stereo not given) :: 0
CC(C)(C)OC(=O)c1cccnc1/C=N/O :: 0

###

Reported GI50 values for a set of compounds
Test system: OVCAR-3
Experiment: NCI tumour cell line growth inhibition, 48 h
Active and inactive are the calls of the source. No stated cut-off is given here; in the data, active = GI50 up to about 1.1 µM and inactive = higher.
Readout Kind: GI50

C/C(=N\NC(=S)N1CCOCC1)c1nc2cccnc2[nH]1 :: 31 µM (inactive)
NC(=O)N1N=C2c3ccccc3OC[C@H]2[C@@H]1c1ccccc1 :: 20.9 µM (inactive)
O=C(c1ccccc1)c1ccc(C(c2c(O)c3ccccc3oc2=O)c2c(O)c3ccccc3oc2=O)cc1 :: 26.2 µM (inactive)
CC(C)(C)OC(=O)c1cccnc1/C=N/O :: 53.1 µM (inactive)
